Assay: probe aEGFR binding to arrayed compounds – biochemical, biotinylated probe, 635/667 nm fluorescence, primary screen (AID 1097);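 also: probe is a biotinylated anti-EGFR antibody binding compounds printed on slides; score combines fluorescence near 667 nm and signal to noise of each spot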
Conditions: small-molecule microarray, higher = more signal
For each entry below, report its composite z-score value.
Enter the number alone.

q: // returns reported composite z-score for input COc1ccc(C(O)C2C=CC3C(=O)N(c4ccccc4)C(=O)C3N2Nc2ccc([N+](=O)[O-])cc2)c2ccccc12 (centres undefined)
a: -0.0076

q: // returns reported composite z-score for input N#Cc1ccc(C(O)C2C=CC3C(=O)NC(=O)C3N2Nc2ccc(Cl)cc2Cl)cc1 (centres undefined)
a: -0.0594

q: // returns reported composite z-score for input `CC(C)NC(=O)[C@@H]1c2ccccc2C(=O)N(Cc2ccccc2C(F)(F)F)[C@H]1c1ccc(CO)cc1`
a: 0.668

q: // returns reported composite z-score for input `COC(=O)[C@]1(Cc2ccccc2)N=C(c2ccc(OCCCO)cc2)O[C@@H]1c1ccccc1CN=[N+]=[N-]`
a: -0.0967
